The measurements presented in this section are drawn from ChEMBL document CHEMBL1152108.

Could you please report measured IC50 for the items listed next?
Target Of Assay: Neprilysin (Homo sapiens, UniProt P08473)
Sequence (P08473 whole entry): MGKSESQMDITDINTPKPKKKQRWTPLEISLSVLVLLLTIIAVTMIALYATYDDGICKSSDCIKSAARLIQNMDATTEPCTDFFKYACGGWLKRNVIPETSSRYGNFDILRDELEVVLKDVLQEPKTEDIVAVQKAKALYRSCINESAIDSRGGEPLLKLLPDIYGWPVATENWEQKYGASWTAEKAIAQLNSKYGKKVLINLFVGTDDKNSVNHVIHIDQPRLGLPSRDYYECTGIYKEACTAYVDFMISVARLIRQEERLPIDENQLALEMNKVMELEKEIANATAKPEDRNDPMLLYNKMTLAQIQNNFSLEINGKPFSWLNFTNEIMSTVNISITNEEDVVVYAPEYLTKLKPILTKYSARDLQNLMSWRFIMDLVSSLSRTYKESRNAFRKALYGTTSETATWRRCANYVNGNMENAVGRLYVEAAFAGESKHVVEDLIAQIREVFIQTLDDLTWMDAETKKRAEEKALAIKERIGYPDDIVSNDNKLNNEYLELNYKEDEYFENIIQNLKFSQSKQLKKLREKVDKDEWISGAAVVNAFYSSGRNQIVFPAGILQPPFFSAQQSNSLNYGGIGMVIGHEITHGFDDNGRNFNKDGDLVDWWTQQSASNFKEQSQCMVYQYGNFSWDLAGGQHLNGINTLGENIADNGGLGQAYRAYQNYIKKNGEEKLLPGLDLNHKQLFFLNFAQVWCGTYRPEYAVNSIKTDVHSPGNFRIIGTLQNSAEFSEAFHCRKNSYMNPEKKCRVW
Assay Method Text: Inhibition of Neutral Endopeptidase (NEP)
Measurement Setup: read-out: I50
Include the unit right after the number.

Request: Return reported IC50. Input compound: "O=C(O)CN1C(=O)[C@@H](NC(=O)[C@H](S)Cc2ccccc2)CCc2ccccc21"
Result: 14 nM

Request: Return reported IC50. Input compound: "C[C@H](NC(=O)[C@@H](S)Cc1ccccc1)C(=O)N(CC(=O)O)c1ccccc1"
Result: 137 nM

Request: Return reported IC50. Input compound: "CCCC[C@H](S)C(=O)N[C@H]1CCc2ccccc2N(CC(=O)O)C1=O"
Result: 36 nM

Request: Return reported IC50. Input compound: "CC(C)C[C@H](S)C(=O)N[C@H]1CCc2ccccc2N(CC(=O)O)C1=O"
Result: 7 nM

Request: Return reported IC50. Input compound: "C[C@H](S)C(=O)N[C@H]1CCc2ccccc2N(CC(=O)O)C1=O"
Result: 1850 nM
